- Tested on: MEM-, imipenem/relebactam-, and ceftolozane/tazobactam-nonsusceptible P. aeruginosa
- METHOD_SUMMARY: MIC, broth microdilution
- Type: cell-based, Pseudomonas aeruginosa
- COND: Pseudomonas aeruginosa, Table 2; broth microdilution; read-out: MIC90
MIC90 listing for selected compounds.

C[C@H]1COc2c(N3CCN(C)CC3)c(F)cc3c(=O)c(C(=O)O)cn1c23 [Levofloxacin]
64 µg/mL
CN(C)c1cc(NC(=O)CNC(C)(C)C)c(O)c2c1C[C@H]1C[C@H]3[C@H](N(C)C)C(O)=C(C(N)=O)C(=O)[C@@]3(O)C(O)=C1C2=O [tigecycline]
16 µg/mL
O=C(O)c1cn(C2CC2)c2cc(N3CCNCC3)c(F)cc2c1=O [Ciprofloxacin]
64 µg/mL
C[C@H]1[C@H](NC(=O)/C(=N\OC(C)(C)C(=O)O)c2csc(N)n2)C(=O)N1S(=O)(=O)O [ATM, aztreonam]
> 64 µg/mL

Please find the next compound below.
QUERY: Missing value: MIC90, MEM-, imipenem/relebactam-, and ceftolozane/tazobactam-nonsusceptible P. aeruginosa, entry NCC[C@H](O)C(=O)N[C@@H]1C[C@H](N)[C@@H](O[C@H]2O[C@H](CN)[C@@H](O)[C@H](O)[C@H]2O)[C@H](O)[C@H]1O[C@H]1O[C@H](CO)[C@@H](O)[C@H](N)[C@H]1O [Amikacin] . Fill in?
RESULT: > 64 µg/mL
